meta.source: patent US20250186620A1

target: T1, human connexin43 (Cx43) (human, UniProt P17302 2-382); assay: FETCH (flow cytometry, % dual-labelled HEK 293FT cells), heterotypic, n=6
T1 construct: whole, on cells; Hemichannel expressed in HEK 293FT cells for FETCH; also called GJA1; not shown: C-terminal fluorescent protein fusion (mEmerald or RFP670 in FETCH)
T1 sequence (P17302 2-382): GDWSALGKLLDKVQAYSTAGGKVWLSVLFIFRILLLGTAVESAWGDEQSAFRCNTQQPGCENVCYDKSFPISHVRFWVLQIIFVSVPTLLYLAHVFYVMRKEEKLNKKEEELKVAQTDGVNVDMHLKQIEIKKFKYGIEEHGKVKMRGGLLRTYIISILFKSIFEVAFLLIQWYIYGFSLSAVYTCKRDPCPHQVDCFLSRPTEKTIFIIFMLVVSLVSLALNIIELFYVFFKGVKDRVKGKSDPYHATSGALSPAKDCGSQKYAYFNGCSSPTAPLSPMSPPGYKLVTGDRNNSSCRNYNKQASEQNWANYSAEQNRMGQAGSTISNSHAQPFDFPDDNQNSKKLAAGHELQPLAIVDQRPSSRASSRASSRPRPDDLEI
property: FETCH score
Value and unit, in that order.

Request: Can you share its FETCH score? I mean this binder: Cx35E224H (Morone americana Cx35 mutant E224H) (other, Extracellular loop mutant of the screening library; not shown: C-terminal fluorescent protein fusion (mEmerald or RFP670 in FETCH)) MGEWTILERLLEAAVQQHSTMIGRILLTVVVIFRILIVAIVGETVYDDEQTMFVCNTLQPGCNQACYDKAFPISHIRYWVFQIIMVCTPSLCFITYSVHQSAKQKERRYSTVYLTLDKDQDSLKRDESKKIKNTIVNGVLQNTENSTKEAEPDCLEVKEIPNSAMRTTKSKMRRQEGISRFYIIQVVFRNALEIGFLVGQYFLYGFNVPSVYECDRYPCIKDVHCYVSRPTEKTVFLVFMFAVSGFCVVLNLAELNHLGWRKIKTAVRGVQARRKSIYEIRNKDLPRMSVPNFGRTQSSDSAYV
Response: 0.4%

Request: Can you share its FETCH score? I mean this binder: Cx35E224K (Morone americana Cx35 mutant E224K) (other, Extracellular loop mutant of the screening library; not shown: C-terminal fluorescent protein fusion (mEmerald or RFP670 in FETCH)) MGEWTILERLLEAAVQQHSTMIGRILLTVVVIFRILIVAIVGETVYDDEQTMFVCNTLQPGCNQACYDKAFPISHIRYWVFQIIMVCTPSLCFITYSVHQSAKQKERRYSTVYLTLDKDQDSLKRDESKKIKNTIVNGVLQNTENSTKEAEPDCLEVKEIPNSAMRTTKSKMRRQEGISRFYIIQVVFRNALEIGFLVGQYFLYGFNVPSVYECDRYPCIKDVKCYVSRPTEKTVFLVFMFAVSGFCVVLNLAELNHLGWRKIKTAVRGVQARRKSIYEIRNKDLPRMSVPNFGRTQSSDSAYV
Response: 0.5%

Request: Can you share its FETCH score? I mean this binder: Cx34.7K222Q (Morone americana Cx34.7 mutant K222Q) (other, Extracellular loop mutant of the screening library; not shown: C-terminal fluorescent protein fusion (mEmerald or RFP670 in FETCH)) MGEWTILERLLEAAVQQHSTMIGRILLTVVVIFRILIVAIVGETVYEDEQAMFICNTLQPGCNQACYDKAFPISHIRYWVFQIILVCTPSLCFITYSVHQSAKQKDRRYSFLYPIMERDYGGRDGARKLRNINGILVQHGGDGGGGKEEPDCLEVKEIPNAPRGLTHGKSSKVRRQEGISRFYIIQVVFRNALEIGFLAGQYFLYGFSVPGIFECDRYPCLQEVECYVSRPTEKTVFLVFMFAVSGICVVLNLAELNHLGWRKIKAAIRGVQARRKSICEIRKKDMAHLSQPPNLGRTQSSESAYV
Response: 1.3%

Request: Can you share its FETCH score? I mean this binder: Cx35E224R (Morone americana Cx35 mutant E224R) (other, Extracellular loop mutant of the screening library; not shown: C-terminal fluorescent protein fusion (mEmerald or RFP670 in FETCH)) MGEWTILERLLEAAVQQHSTMIGRILLTVVVIFRILIVAIVGETVYDDEQTMFVCNTLQPGCNQACYDKAFPISHIRYWVFQIIMVCTPSLCFITYSVHQSAKQKERRYSTVYLTLDKDQDSLKRDESKKIKNTIVNGVLQNTENSTKEAEPDCLEVKEIPNSAMRTTKSKMRRQEGISRFYIIQVVFRNALEIGFLVGQYFLYGFNVPSVYECDRYPCIKDVRCYVSRPTEKTVFLVFMFAVSGFCVVLNLAELNHLGWRKIKTAVRGVQARRKSIYEIRNKDLPRMSVPNFGRTQSSDSAYV
Response: 0.5%
